Source: patent US20140120095A1

# assayed-target: T1, recombinant human VEGF165 (human, UniProt P15692-4 27-191, biotinylated in the competition assays)
# T1 construct: Bought protein; also called hVEGF165; rhVEGF165
# T1 sequence (P15692 other isoform, or with tags, fused parts or gaps): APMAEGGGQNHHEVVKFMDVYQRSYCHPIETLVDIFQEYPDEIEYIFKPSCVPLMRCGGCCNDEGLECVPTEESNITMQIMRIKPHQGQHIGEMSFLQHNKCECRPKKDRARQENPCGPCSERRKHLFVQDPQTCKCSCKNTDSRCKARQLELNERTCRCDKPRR
# assay-text: SPR Biacore, immobilised hVEGF165, two state reaction model
experimental-readout: kd2 (s⁻¹)
The reply should contain only the number, in s⁻¹.

Example cases with answers are listed next.
VEGFBII024 (VHH, not shown: small tags and cut ends, Bivalent anti-VEGF VHH; also called VEGFBII23B04-40GS-86H09) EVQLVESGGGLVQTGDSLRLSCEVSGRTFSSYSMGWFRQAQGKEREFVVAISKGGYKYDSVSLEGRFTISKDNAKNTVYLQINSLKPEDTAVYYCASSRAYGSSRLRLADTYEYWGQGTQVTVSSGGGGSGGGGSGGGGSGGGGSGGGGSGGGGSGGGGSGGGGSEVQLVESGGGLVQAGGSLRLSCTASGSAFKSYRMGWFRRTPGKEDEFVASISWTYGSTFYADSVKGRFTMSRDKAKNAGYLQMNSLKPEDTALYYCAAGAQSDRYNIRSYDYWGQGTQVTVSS :: 0.00028
VEGFBII022 (VHH, not shown: small tags and cut ends, Bivalent (heterodimeric) anti-VEGF VHH; also called VEGFBII23B04-9GS-5B05) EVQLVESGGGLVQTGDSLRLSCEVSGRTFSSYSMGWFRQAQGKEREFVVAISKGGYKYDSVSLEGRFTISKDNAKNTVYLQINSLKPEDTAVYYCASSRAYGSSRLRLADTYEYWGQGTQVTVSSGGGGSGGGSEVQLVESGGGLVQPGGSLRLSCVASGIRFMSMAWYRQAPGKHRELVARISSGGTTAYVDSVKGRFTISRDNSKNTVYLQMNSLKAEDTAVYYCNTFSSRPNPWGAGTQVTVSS :: 0.00026
VEGFBII010 (VHH, not shown: small tags and cut ends, Homodimeric bivalent anti-VEGF VHH; also called VEGFBII23B04-35GS-23B04) EVQLVESGGGLVQTGDSLRLSCEVSGRTFSSYSMGWFRQAQGKEREFVVAISKGGYKYDSVSLEGRFTISKDNAKNTVYLQINSLKPEDTAVYYCASSRAYGSSRLRLADTYEYWGQGTQVTVSSGGGGSGGGGSGGGGSGGGGSGGGGSGGGGSGGGGSEVQLVESGGGLVQTGDSLRLSCEVSGRTFSSYSMGWFRQAQGKEREFVVAISKGGYKYDSVSLEGRFTISKDNAKNTVYLQINSLKPEDTAVYYCASSRAYGSSRLRLADTYEYWGQGTQVTVSS :: 0.00013

For the next question, use this binder.
Problem: Returns the measured kd2 for the input binder. Input: VEGFBII021 (VHH, not shown: small tags and cut ends, Bivalent (heterodimeric) anti-VEGF VHH; also called VEGFBII23B04-40GS-5B05) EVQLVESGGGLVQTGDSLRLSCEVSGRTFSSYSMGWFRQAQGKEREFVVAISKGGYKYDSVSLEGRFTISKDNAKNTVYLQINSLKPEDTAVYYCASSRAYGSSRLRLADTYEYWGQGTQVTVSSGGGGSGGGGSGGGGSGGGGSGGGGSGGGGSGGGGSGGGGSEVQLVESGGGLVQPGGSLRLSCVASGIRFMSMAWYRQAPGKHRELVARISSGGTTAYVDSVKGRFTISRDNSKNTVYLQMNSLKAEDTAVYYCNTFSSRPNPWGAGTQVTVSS
Result: 0.00019
